Recorded light-induced TopBP1 condensate (z-score) by entry
# Tested on: optoTopBP1 Flp-In 293 T-REx (HEK293) cells
# experimental details: light-induced TopBP1 condensate (nuclear foci) count, plate-normalised robust z-score vs non-control wells; higher = more TopBP1 condensates (negative = condensation inhibitor), active = hit call of the paper
# experimental parameters: 10 µM; incubation time 2 h
Counter-ions that a name gives are not always drawn. Among all 1,500 compounds or so, about 30 (2%) showed activity. The entries come from a sample that favours actives as a whole.
Could you keep your reply to the number by itself?

Record excerpt, results attached:
>  <compound>
CC(=O)O[C@@]12CO[C@@H]1C[C@H](O)[C@@]1(C)C(=O)[C@H](O)C3=C(C)[C@@H](OC(=O)[C@H](O)[C@@H](NC(=O)OC(C)(C)C)c4ccccc4)C[C@@](O)([C@@H](OC(=O)c4ccccc4)[C@H]21)C3(C)C [Docetaxel]

>  <reported measurement>
-1.72

$$$$
>  <compound>
CC(=O)[C@@]1(O)CC[C@H]2[C@@H]3C[C@H](C)C4=CC(=O)C=C[C@]4(C)[C@@]3(F)[C@@H](O)C[C@@]21C [Fluorometholone]

>  <reported measurement>
-0.232

$$$$

// below: light-induced TopBP1 condensate (z-score) requested for another compound
input: Return reported light-induced TopBP1 condensate (z-score); argument: Cn1cc(C(=O)[C@@H]2CCc3[nH]cnc3C2)c2ccccc21 [Ramosetron hydrochloride]
output: -0.549

====

# Tested on: optoTopBP1 Flp-In 293 T-REx (HEK293) cells
# experimental details: light-induced TopBP1 condensate (nuclear foci) count, plate-normalised robust z-score vs non-control wells; higher = more TopBP1 condensates (negative = condensation inhibitor), active = hit call of the paper
# experimental parameters: 10 µM; incubation time 2 h
Counter-ions that a name gives are not always drawn. About 30 (2%) of roughly 1,500 compounds showed activity. What follows is part of a selection rich in actives, with near analogues and random picks from the rest.
Recorded light-induced TopBP1 condensate (z-score) by entry
Could you keep your reply to the number by itself?

Record excerpt, results attached:
>  <compound>
Cn1cc([S+](C)[O-])c(=O)c2ccc(F)cc21 (stereo not given) [Flosequinan]

>  <reported measurement>
0.501

$$$$
>  <compound>
OCCN1CCN(CCCN2c3ccccc3C=Cc3ccccc32)CC1 [Opipramol dihydrochloride]

>  <reported measurement>
-0.102

$$$$
>  <compound>
Nc1c2ccccc2nc2ccccc12 [Aminacrine]

>  <reported measurement>
-2.02

$$$$

input: Return reported light-induced TopBP1 condensate (z-score); argument: CCOC(=O)c1c(N)sc2c1CCN(Cc1ccccc1)C2 [Tinoridine hydrochloride]
output: 0.308

input: Cc1ncc([N+](=O)[O-])n1CC(C)O (stereo not given) [Secnidazole] , same question.
output: 0.994

input: CN[C@@H]1[C@@H](O)[C@@H](O[C@@H]2[C@@H](O)[C@H](O[C@H]3OC(CN)=CC[C@H]3N)[C@@H](N)C[C@H]2N)OC[C@]1(C)O [Sisomicin sulfate] , same question.
output: 0.652

input: CC(C)(CO)C(O)C(=O)NCCCO (stereo not given) [Panthenol (D)] , same question.
output: 0.585

input: COc1cc(/C=C/C(=O)N2CCN(CC(=O)N3CCCC3)CC2)cc(OC)c1OC [Cinepazide maleate] , same question.
output: -0.187

input: N=c1ccn2c(n1)O[C@H]1[C@H](O)[C@@H](CO)O[C@H]12 [Ancitabine hydrochloride] , same question.
output: -2.02

input: CN[C@@H]1[C@H](O)[C@H](NC)[C@H]2O[C@@]3(O)C(=O)C[C@@H](C)O[C@H]3O[C@@H]2[C@H]1O [Spectinomycin dihydrochloride] , same question.
output: 0.546

input: CC(=O)OCC(=O)[C@@]12N=C(C)O[C@@H]1C[C@H]1[C@@H]3CCC4=CC(=O)C=C[C@]4(C)[C@H]3[C@@H](O)C[C@@]12C [Deflazacort] , same question.
output: -0.182

input: C[C@H](O)[C@H](O)[C@H]1CNc2[nH]c(N)nc(=O)c2N1 [Sapropterin dihydrochloride] , same question.
output: 0.574

input: Nc1ccc2cc3ccc(N)cc3nc2c1 [Proflavine hemisulfate] , same question.
output: -6.85

input: CC(C)N1CCN(c2ccc(OCC3COC(Cn4cncn4)(c4ccc(Cl)cc4Cl)O3)cc2)CC1 (stereo not given) [Terconazole] , same question.
output: -0.114

input: Cc1ccc(C)c(OCCCC(C)(C)C(=O)O)c1 [Gemfibrozil] , same question.
output: 0.575
